Where these numbers come from: ChEMBL document CHEMBL1131339

# Test system: Melanophore
# assay.method.text: Effective concentration required to produce 50% of the maximal pigment aggregation in Xenopus laevis dermal melanophore cell line
# Assay type: functional, cell-based, frog
# measurement.setup: Xenopus laevis, Melanophore
pEC50: −log10 of the molar value.
quantity.name: pEC50

Example results:
Cc1ccc2c(c1)c1c(n2C)CCCC1CNC(=O)C1CCC1 (stereo unspecified) = 5.84
Cn1c2c(c3cc(Cl)ccc31)C(CNC(=O)C1CC1)CCC2 (stereo unspecified) = 5.82
CCCC(=O)NCC1CCCc2c1c1ccccc1n2C (stereo unspecified) = 6.02
CCC(=O)NCC1CCCc2c1c1cc(C)ccc1n2C (stereo unspecified) = 6.89

P = CC(=O)NCC1CCCc2c1c1cc(Cl)ccc1n2C (stereo unspecified)
Q = CCC(=O)NCC1CCCc2c1c1cc(OC)ccc1n2C (stereo unspecified)
IN: Which of these two has the smaller recorded pEC50: P or Q ? Identify your pick by its label.
OUT: P

###

# Test system: Melanophore
# assay.method.text: Effective concentration required to produce 50% of the maximal pigment aggregation in Xenopus laevis dermal melanophore cell line
# Assay type: functional, cell-based, frog
# measurement.setup: Xenopus laevis, Melanophore
quantity.name: EC50 (nM)

Please review the following examples before continuing.
CCC(=O)NC1CCc2[nH]c3ccc(OC)cc3c2C1 (configuration not stated) = 7
COc1ccc2[nH]c3c(c2c1)CC(NC(=O)C(F)(F)F)CC3 (configuration not stated) = 32
COc1ccc2[nH]cc(CCNC(C)=O)c2c1 = 0.23
CCCCC(=O)NCC1CCCc2c1c1cc(OC)ccc1n2C (configuration not stated) = 132
CCC(=O)NCC1CCCCc2c1c1cc(OC)ccc1n2C (stereo in doubt; 11i) = 91
CCCC(=O)NC1CCc2[nH]c3ccc(OC)cc3c2C1 (configuration not stated) = 25

I = COc1ccc2c(c1)c1c(n2C)CCCCC1CNC(C)=O (configuration not stated)
II = CCC(=O)NC1CCc2[nH]c3ccccc3c2C1 (configuration not stated)
IN: Which value of EC50 is greater, the one for I or the one for II ? # answer = label of selected item
OUT: II
(II: 3270 nM, I: 258 nM)

1 = COc1ccc2[nH]c3c(c2c1)CC(NC(C)=O)CC3 (configuration not stated)
2 = CC(=O)NCC1CCc2c1c1ccccc1n2C (configuration not stated)
IN: Short answer wanted: higher EC50, 1 or 2 ? // return label of chosen record
OUT: 2

a = CCCC(=O)NCC1CCCc2c1c1cc(OC)ccc1n2C (configuration not stated)
b = CCCC(=O)NCC1CCc2c1c1cc(OC)ccc1n2C (configuration not stated)
IN: Short answer wanted: higher EC50, a or b ? The response must carry the label of the picked entry.
OUT: b

###

# System: Melanophore
# assay.method.text: Inhibitory concentration against melatonin-induced pigment aggregation by 50% in Xenopus laevis dermal melanophore cell line
# Format: functional, cell-based, frog
quantity.name: IC50

Recorded IC50, per entry:
COc1ccc2c(c1)c1c(n2C)CCCCC1CNC(=O)C1CC1 (stereo unspecified) = 43 µM
COc1ccc2[nH]c3c(c2c1)CC(NC(=O)CBr)CC3 (stereo unspecified) = 11 µM
COc1ccc2[nH]c3c(c2c1)CC(NC(=O)C1CC1)CC3 (stereo unspecified) = Not Active
COc1ccc2[nH]cc(CCNC(C)=O)c2c1 = Not Active
CC(=O)NCC1CCCc2c1c1cc(Cl)ccc1n2C (stereo unspecified) = Not Active
COc1ccc2c(c1)c1c(n2C)CCCC1CNC(=O)C1CC1 (stereo unspecified) = 48 µM
CC(=O)NCC1CCCc2c1c1ccccc1n2C (stereo in doubt; 9a) = Not Active
COc1ccc2c(c1)c1c(n2C)CCCCC1CNC(=O)C1CCC1 (stereo unspecified) = 18 µM

Reported IC50 of CCC(=O)NCC1CCc2c1c1cc(OC)ccc1n2C (single isomer, unassigned; (+)) : Not Active

Note to self: IC50 recorded for Cc1ccc2c(c1)c1c(n2C)CCCC1CNC(=O)C1CCC1 (stereo unspecified) was Not Active

Entry CCC(=O)NCC1CCCc2c1c1cc(C)ccc1n2C (stereo unspecified) , IC50 reported as Not Active

###

# Test system: Melanophore
# assay.method.text: Effective concentration required to produce 50% of the maximal pigment aggregation in Xenopus laevis dermal melanophore cell line
# Format: functional, cell-based, frog
# measurement.setup: Xenopus laevis, Melanophore
pEC50: −log10 of the molar value.
quantity.name: pEC50

Here's what some known entries look like.
COc1ccc2[nH]c3c(c2c1)CC(NC(=O)C1CC1)CC3 (stereo unspecified) = 6.71
COc1ccc2[nH]c3c(c2c1)CC(NC(=O)CBr)CC3 (stereo unspecified) = 7.49

A = COc1ccc2c(c1)c1c(n2C)CCCCC1CNC(=O)C1CC1 (stereo unspecified)
B = COc1ccc2c(c1)c1c(n2C)CCCC1CNC(=O)C(F)(F)F (stereo unspecified)
IN: Please compare: A and B . Report which one has the smaller pEC50 value. I would appreciate it if you answered with the label of your choice.
OUT: A

###

# target.or.system: Melatonin receptor (Gallus gallus, UniProt P49288+P51050+P49285)
# assay.method.text: Binding affinity towards melatonin receptor, determined in chicken brain membranes using [2-125I]melatonin
# Assay type: cell membranes, Membrane
quantity.name: Ki (nM)

Examples with their reported Ki follow.
CC(=O)NCC1CCCCc2c1c1ccccc1n2C (configuration not stated) = 424
CCCC(=O)NCC1CCCc2c1c1cc(OC)ccc1n2C (configuration not stated) = 0.378
CCC(=O)NCC1CCCCc2c1c1cc(OC)ccc1n2C (stereo in doubt; 11i) = 7
CCC(=O)NCC1CCCCc2c1c1ccccc1n2C (configuration not stated) = 129
CCCC(=O)NCC1CCCCc2c1c1cc(OC)ccc1n2C (configuration not stated) = 10.3
CC(=O)NCCc1c(Cc2ccccc2)[nH]c2ccccc12 = 1606

I = CC(=O)NCC1CCCc2c1c1ccccc1n2C (single isomer, unassigned; (-))
II = Cn1c2c(c3ccccc31)C(CNC(=O)C1CC1)CC2 (configuration not stated)
IN: Could you point out whether the larger Ki belongs to I or to II ? Your choice should be expressed through its label.
OUT: II

A = CCCCC(=O)NCC1CCCCc2c1c1ccccc1n2C (configuration not stated)
B = CC(=O)NCC1CCc2c1c1ccccc1n2C (configuration not stated)
IN: Form field 'greater Ki' accepts A or B ; which applies? Which one? Tell me its label.
OUT: A
(A: 8300 nM, B: 516 nM)

###

# Tested on: Melanophore
# assay.method.text: Effective concentration required to produce 50% of the maximal pigment aggregation in Xenopus laevis dermal melanophore cell line
# Type: functional, cell-based, frog
# measurement.setup: Xenopus laevis, Melanophore
pEC50: −log10 of the molar value.
quantity.name: pEC50

CCCC(=O)NCC1CCc2c1c1ccccc1n2C (stereo not given) = 5.58
CCC(=O)NCC1CCCc2c1c1cc(OC(F)(F)F)ccc1n2C (stereo not given) = 6.13
COc1ccc2c(c1)c1c(n2C)CCCC1CNC(=O)C1CCC1 (stereo not given) = 6.86

1 = CC(=O)NCC1CCCc2c1c1cc(C)ccc1n2C (stereo not given)
2 = CC(=O)NCC1CCCc2c1c1cc(OC(F)(F)F)ccc1n2C (stereo not given)
3 = CCC(=O)NCC1CCCc2c1c1ccccc1n2C (stereo not given)
IN: // ranking: key=pEC50, reverse=True Please express your ranking as an ordered list of the labels.
OUT: 1, 3, 2

I = COc1ccc2c(c1)c1c(n2C)CCCC1CNC(=O)C1CC1 (stereo not given)
II = CCCC(=O)NC1CCc2[nH]c3ccccc3c2C1 (stereo not given)
IN: Please compare: I and II . Report which one has the smaller pEC50 value. Pick one; state its label.
OUT: II

a = CCCC(=O)NCC1CCCCc2c1c1cc(OC)ccc1n2C (stereo not given)
b = CCC(=O)NCC1CCc2c1c1ccccc1n2C (stereo not given)
IN: From the items above, decide which of a and b has the lower pEC50 reading. Indicate which entry you chose by stating its label.
OUT: b
(b: 5.39, a: 6.85)

###

# Tested on: Melanophore
# assay.method.text: Inhibitory concentration against melatonin-induced pigment aggregation by 50% in Xenopus laevis dermal melanophore cell line
# Format: functional, cell-based, frog
quantity.name: IC50 (µM)

1 = Cn1c2c(c3ccccc31)C(CNC(=O)C1CC1)CC2 (stereo not drawn)
2 = O=C(NCCc1c(-c2ccccc2)[nH]c2ccccc12)C1CCC1
3 = Cn1c2c(c3cc(Cl)ccc31)C(CNC(=O)C1CC1)CCC2 (stereo not drawn)
IN: Ranking by IC50 (descending) is requested for the entries above. Response format: the labels, sorted as the prompt asks.
OUT: 1, 3, 2

P = Cn1c2c(c3ccccc31)C(CNC(=O)C1CCC1)CCCC2 (stereo not drawn)
Q = CCC(=O)NCC1CCCc2c1c1cc(OC(F)(F)F)ccc1n2C (stereo not drawn)
IN: Just curious, which one has the larger IC50 reading, P or Q ? When you have decided, please share the label of that item.
OUT: P
(P: 44 µM, Q: 6 µM)
